- System: SEM cells
- assay-comment: cell viability relative to DMSO control; higher = less cytotoxic
- measurement-parameters: HPLM + 10% dialyzed FBS; 48 h; 0.00234 µM
reported-property: cell viability (%)
Numbers only, in %.

>  <molecule>
C[C@H]1[C@@H](C(=O)C[C@H]2O[C@@H]3O[C@]4(C)CC[C@H]5[C@H](C)CC[C@@H]([C@H]2C)[C@@]35OO4)O[C@@H]2O[C@]3(C)CC[C@H]4[C@H](C)CC[C@@H]1[C@@]24OO3

>  <target-under-test>
SEM cells

>  <cell viability, %>
106

$$$$
>  <molecule>
COc1ccc([C@@H]2CC(=O)c3c(O)cc(O[C@@H]4O[C@H](CO[C@@H]5O[C@@H](C)[C@H](O)[C@@H](O)[C@H]5O)[C@@H](O)[C@H](O)[C@H]4O)cc3O2)cc1O

>  <target-under-test>
SEM cells

>  <cell viability, %>
101

$$$$
>  <molecule>
COc1cc2nc(-c3cc(F)ccc3O)nc(N[C@@H]3CNC[C@H]3C(C)(C)O)c2cc1OC

>  <target-under-test>
SEM cells

>  <cell viability, %>
96.4

$$$$
>  <molecule>
CC(O)(C#Cc1ccc2c(c1)N(c1nc(N)ncc1Cl)CC2)c1nccs1 (configuration not stated)

>  <target-under-test>
SEM cells

>  <cell viability, %>
110

$$$$
>  <molecule>
COc1ccc(C2Sc3ccccc3N(CCN(C)C)C(=O)C2OC(C)=O)cc1 (configuration not stated)

>  <target-under-test>
SEM cells

>  <cell viability, %>
111

$$$$
>  <molecule>
CC(C)c1ccc(Cn2ccc3c4c(N)nc(NC5CC5)nc4ccc32)cc1

>  <target-under-test>
SEM cells

>  <cell viability, %>
100

$$$$

Now let's try a different one.
For this molecule ( CC/1=C(/C(CC(=O)N1)C2=CC=C(C=C2)C(F)(F)F)C(=O)NC3=C(F)C=C4[NH]N=CC4=C3 (configuration not stated) ), measured cell viability is 94.4
